B1: F1*; the commonest letter at each place (parent)
chain: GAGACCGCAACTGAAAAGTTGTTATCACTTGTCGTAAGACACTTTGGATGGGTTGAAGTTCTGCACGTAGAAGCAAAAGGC

Variants of: B1
Experiment: fraction ligated after 30 min (ligated reads / total reads); higher = more ligase activity
Conditions: with F1*sub RNA substrate (template-directed ligation), 42 °C
quantity: fraction ligated
# answer = number (no unit)

The examples below pair each entry with its known result.
seq	fraction ligated
GAGACCGCAACTGAAAAGTTGTTATCCCTTGTCGTAAGACACTTTGGCTGGGTTGAAGTTCTGCACGTAGAAGCAAAAGGC [A27C A48C]	0.748
GAGACCGCAACTGAAAAGTTGTTACCACTTGACGTAAGACACTTTGGATGGGTTGAAGTTCTGCACGTAGAAGCAAAAGGC [T25C T32A]	0.745

Entry GAGACCGCAACTGAAAAGTTGTTATCACCTGTCGTAAGACACTTTTGATGGGTTGAAGTTCTGCACGTAGAAGCAAAAGGC [T29C G46T] , fraction ligated reported as 0.779

Entry GAGACCGCAACTGAAAAGTTGTTATCACTTGTTGTAAGATACTTTGGATGGGTTGAAGTTCTGCACGTAGAAGCAAAAGGC [C33T C40T] , fraction ligated reported as 0.859
